# viability at 28.5 h, 10 µM listing for each entry below
# protocol_details: in vitro
# measurement_conditions: human, hela cells, % viability
attribute_measured: viability at 28.5 h, 10 µM (%)

                                   molecule          attribute_measured  recorded_number
0  CCn1nc(C(C)C)cc1C(=O)N1CCN(C)CC1c1ccccc1 (centres unmarked)  viability at 28.5 h, 10 µM              100
1  CO[C@@H]1CO[C@H]2[C@@H]1OC[C@@H]2NC(=O)Nc1cccc(C(F)(F)F)c1  viability at 28.5 h, 10 µM              112
2  Cc1cnc(NC(=O)N2CCOC(c3ccc(F)cc3F)C2)s1 (centres unmarked)  viability at 28.5 h, 10 µM             88.5
3  C/C(=N/OCC(=O)Nc1oc(-c2ccccc2)c(-c2ccccc2)c1C#N)c1cccs1  viability at 28.5 h, 10 µM             89.6
4  Cc1cc(C)c2c(N)c(C(=O)Nc3ccc(Br)cc3)sc2n1  viability at 28.5 h, 10 µM              108

* * *

# protocol_details: in vitro
# measurement_conditions: human, hela cells, % viability, bulk resorufin, single well
attribute_measured: viability at 28.5 h, 10 µM (%)

>>> df
                                    compound          attribute_measured  endpoint_unit  recorded_number
 0  O=C1NC(=O)C(CCC(=O)N2CCN(c3nc4ccccc4s3)CC2)C(=O)N1  viability at 28.5 h, 10 µM              %             86.6
 1     O=C(O)CCCNC(=O)C(O)(c1ccccc1)c1ccccc1  viability at 28.5 h, 10 µM              %             95.5
 2      c1cc(-c2ccc3c(c2)COC2(CCNCC2)O3)ccn1  viability at 28.5 h, 10 µM              %               99
 3  COc1ccc(C(C)NC(=O)c2cccc(-c3ccc4c(c3)COC3(CCN(C(=O)OC(C)(C)C)CC3)O4)c2)cc1 (centres unmarked)  viability at 28.5 h, 10 µM              %              100
 4  CCOC(=O)N1CCC2(CC1)Oc1ccc(-c3ccc(OC)cc3OC)cc1O2  viability at 28.5 h, 10 µM              %             99.7
 5             Cc1cc(C)c2c(c1)COC1(CCNCC1)O2  viability at 28.5 h, 10 µM              %              100
 6  Cc1ccc(N2C(=O)/C(=C/c3ccc(OCC(=O)O)c(Cl)c3)C(=O)NC2=S)c(C)c1  viability at 28.5 h, 10 µM              %              109
 7  COc1cc(C(=O)N2CCC(N3C(=O)Cc4ccccc43)CC2)ccc1C  viability at 28.5 h, 10 µM              %             84.2
 8  CN(C(=O)c1ccc(Cl)c(Cl)c1)[C@H]1CCC[C@H]1N1CCCC1 [CBK003411C]  viability at 28.5 h, 10 µM              %               90
 9  CC(C)(C)OC(=O)N1CCC2(CC1)OCc1cc(-c3cccc(OCC(=O)N4CCOCC4)c3)ccc1O2  viability at 28.5 h, 10 µM              %             96.8
10  O=C1NC(=S)NC(=O)C1=Cc1ccc(-c2ccc([N+](=O)[O-])cc2Cl)o1  viability at 28.5 h, 10 µM              %             89.2
11  O=[N+]([O-])c1ccc(OC/C=C2\Oc3ccc([N+](=O)[O-])cc3C2N2CCOCC2)cc1 (centres unmarked)  viability at 28.5 h, 10 µM              %             91.8
12       COc1cc(Cl)ccc1NC(=O)Oc1cccc2cnccc12  viability at 28.5 h, 10 µM              %             79.9
13  O=C1NC(=O)C(CCc2ccccn2)(Cc2cccc(Cl)c2Cl)C(=O)N1c1ccc(Br)cc1 (centres unmarked)  viability at 28.5 h, 10 µM              %             94.2
14          Cc1ccc(Cl)c(OC(=O)NCCOC(=O)NO)c1  viability at 28.5 h, 10 µM              %             94.3
15  CCOc1cccc(N2C(=O)/C(=C\c3ccc(-c4ccc(C(=O)O)c(Cl)c4)o3)C(=O)NC2=S)c1  viability at 28.5 h, 10 µM              %             92.1
16  CN(C)CCN/C=C1/C(=O)NC(=S)N(c2ccccc2Cl)C1=O  viability at 28.5 h, 10 µM              %             86.4
17  COc1ccc(CCNCc2ccc([N+](=O)[O-])cc2)cc1OC  viability at 28.5 h, 10 µM              %              115
18  CN1C(=O)N(C)C(=O)C(Cc2ccccn2)(Cc2ccccn2)C1=O  viability at 28.5 h, 10 µM              %             97.5
19  COc1cc(/C=C2\C(=O)NC(=S)N(c3cccc(C)c3C)C2=O)ccc1OC(C)C(=O)O (centres unmarked)  viability at 28.5 h, 10 µM              %             98.7

* * *

# protocol_details: in vitro
# measurement_conditions: human, hela cells, % viability
attribute_measured: viability at 28.5 h, 10 µM (%)

>>> print(df.to_string())
                                   molecule  recorded_number
0  CC1Cc2cc(-c3cc4ccccn4c3)ccc2N1S(C)(=O)=O (stereo not drawn) [CBK285227]             90.3
1  CC(=O)NCCc1nc2ccccc2n1CCOc1ccc(Cl)cc1 [CBK269610]              107
2  O=C(Nc1cccc2[nH]ccc12)c1ccc(Br)cc1Cl [CBK159643]             78.7

* * *

# protocol_details: in vitro
# measurement_conditions: human, hela cells, % viability
attribute_measured: viability at 28.5 h, 10 µM (%)

In [3]: df
Out[3]:
                                   molecule  recorded_number
0  O=C(c1cc2c([nH]1)CCCC2)N1CCC(CCN2CCOCC2)CC1 [CBK281869]             88.9
1  Oc1ccc(NCc2ccc(OCc3cccs3)cc2)cc1 [CBK266586]               89
2  O=C(O)c1ccccc1N1C(=O)c2ccc(Oc3ccc(Oc4ccc5c(c4)C(=O)N(c4ccccc4C(=O)O)C5=O)cc3)cc2C1=O [CBK261186]             88.6
3  O=C(CN1CCC(c2ccccc2F)CC1)N1CCOCC1 [CBK283548]             89.3
4  COc1cccc(C2Nc3ccc4ccccc4c3C3=C2C(=O)CC(C)(C)C3)c1OCC(=O)O (stereo not drawn) [CBK263045]             89.8
5  CCOc1ccc(OCC)c2c1n(C)c(SC)[n+]2C [CBK005720G]             92.1

* * *

# protocol_details: in vitro
# measurement_conditions: human, hela cells, % viability
attribute_measured: viability at 28.5 h, 10 µM (%)

>>> print(df.to_string())
                                   compound  endpoint_unit  recorded_number
0  COc1ccc(C(C)C)cc1-c1cn2ccnc2c(NCc2ccco2)n1 [CBK037269]              %             98.2
1  c1cnn(CC2CCCCN2c2ncnc3ccsc23)c1 (stereo not drawn) [CBK304843]              %             88.3
2  COc1c(C)[nH]cc(CN(C)CCC(=O)Nc2cccc(F)c2)c1=O [CBK304201]              %             90.5

* * *

# protocol_details: in vitro
# measurement_conditions: human, hela cells, % viability
# viability at 28.5 h, 10 µM listing for each entry below
attribute_measured: viability at 28.5 h, 10 µM (%)

>>> df
                                   compound  endpoint_unit  recorded_number
0  CN1[C@@H](CCC(=O)NCc2ccc(F)cc2)CNC(=O)[C@@H]2[C@H]1CCN2C1CCOCC1 [CBK289023]              %              106
1  COc1ccc(/C=C/C(=O)C2CC2)c(C(=O)O)c1OC [CBK286639]              %               97
2  NC(=O)C1CCN(C2CC(=O)NC2=O)CC1 (centres unmarked) [CBK263290]              %             90.3
3  O=C(Nc1nc(OCCN2CCCC2=O)cnc1/C=C\c1ccccc1)c1cc2ccccc2s1 [CBK145380]              %              115
4  O=C(CSc1ccc2nnc(-c3ccccc3)n2n1)Nc1nccs1 [CBK287516]              %             98.6

Source: paper PMC12040169
